// data source = patent US20250163162A1

study.system: T1, IL10Rα/IL2Rγ receptor (human) (UniProt Q13651)
T1 sequence (looked up) 1: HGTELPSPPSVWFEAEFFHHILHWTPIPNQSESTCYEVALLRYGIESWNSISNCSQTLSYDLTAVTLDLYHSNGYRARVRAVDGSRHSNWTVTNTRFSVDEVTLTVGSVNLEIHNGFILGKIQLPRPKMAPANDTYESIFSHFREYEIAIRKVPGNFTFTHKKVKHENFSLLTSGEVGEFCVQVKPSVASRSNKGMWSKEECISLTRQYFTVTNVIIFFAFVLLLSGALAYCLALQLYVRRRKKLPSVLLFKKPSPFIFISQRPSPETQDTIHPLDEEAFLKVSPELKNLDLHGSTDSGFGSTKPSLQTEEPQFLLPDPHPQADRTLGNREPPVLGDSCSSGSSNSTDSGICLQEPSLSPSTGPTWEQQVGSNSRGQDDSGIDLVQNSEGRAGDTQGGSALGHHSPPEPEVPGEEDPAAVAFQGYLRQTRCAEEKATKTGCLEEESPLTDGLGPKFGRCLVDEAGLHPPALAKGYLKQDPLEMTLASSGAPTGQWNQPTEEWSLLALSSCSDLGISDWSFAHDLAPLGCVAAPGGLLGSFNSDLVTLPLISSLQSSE
T1 sequence (looked up) 2: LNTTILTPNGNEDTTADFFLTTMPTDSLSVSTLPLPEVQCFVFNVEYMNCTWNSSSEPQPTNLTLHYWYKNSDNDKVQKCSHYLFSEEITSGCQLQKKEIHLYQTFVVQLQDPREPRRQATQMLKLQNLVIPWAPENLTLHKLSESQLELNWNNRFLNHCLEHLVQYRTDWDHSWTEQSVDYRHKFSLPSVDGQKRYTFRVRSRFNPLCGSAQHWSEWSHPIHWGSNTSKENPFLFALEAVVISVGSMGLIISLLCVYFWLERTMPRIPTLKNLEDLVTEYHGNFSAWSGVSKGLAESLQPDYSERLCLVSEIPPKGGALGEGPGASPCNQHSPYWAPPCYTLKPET
method.summary: cell-based or functional assay
Could you please report measured Granzyme A secretion, CD8 T cells, at 0.0001 µM for the items listed next?
Answer with a number only, understood to be in pg/mL.

*Q* Would you mind telling me what Granzyme A secretion, CD8 T cells, at 0.0001 µM value was observed for hIL10Ra_VHH14 - hIL2Rg_VHH19, linker GS, tag his (bispecific antibody, not shown: small tags and cut ends) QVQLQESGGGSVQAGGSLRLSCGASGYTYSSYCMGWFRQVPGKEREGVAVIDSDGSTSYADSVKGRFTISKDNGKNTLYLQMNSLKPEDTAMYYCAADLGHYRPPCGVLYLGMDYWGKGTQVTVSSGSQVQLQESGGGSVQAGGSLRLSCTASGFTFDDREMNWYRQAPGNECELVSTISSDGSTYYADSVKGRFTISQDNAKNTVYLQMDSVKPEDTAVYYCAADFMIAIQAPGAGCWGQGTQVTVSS ?
*A* 19900

*Q* Would you mind telling me what Granzyme A secretion, CD8 T cells, at 0.0001 µM value was observed for hIL10Ra_VHH14 - hIL2Rg_VHH19, linker GGSGGS, tag his (bispecific antibody, not shown: small tags and cut ends) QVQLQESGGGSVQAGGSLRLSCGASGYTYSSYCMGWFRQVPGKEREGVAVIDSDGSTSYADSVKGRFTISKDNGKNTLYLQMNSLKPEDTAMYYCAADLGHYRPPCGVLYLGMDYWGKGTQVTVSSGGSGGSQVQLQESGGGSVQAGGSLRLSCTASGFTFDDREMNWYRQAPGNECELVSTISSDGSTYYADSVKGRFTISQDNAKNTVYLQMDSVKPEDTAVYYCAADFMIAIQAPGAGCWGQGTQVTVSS ?
*A* 20800

*Q* Would you mind telling me what Granzyme A secretion, CD8 T cells, at 0.0001 µM value was observed for hIL10Ra_VHH14 - hIL2Rg_VHH19, linker GGGSGGGS, tag his (bispecific antibody, not shown: small tags and cut ends) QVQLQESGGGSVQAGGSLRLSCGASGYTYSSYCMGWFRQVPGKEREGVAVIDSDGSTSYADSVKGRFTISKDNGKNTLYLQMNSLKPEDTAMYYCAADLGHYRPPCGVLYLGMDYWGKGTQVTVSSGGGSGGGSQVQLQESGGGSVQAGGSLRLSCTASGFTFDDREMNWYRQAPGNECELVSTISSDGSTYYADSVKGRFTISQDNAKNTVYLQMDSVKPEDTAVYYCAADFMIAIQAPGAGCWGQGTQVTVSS ?
*A* 19700

*Q* Would you mind telling me what Granzyme A secretion, CD8 T cells, at 0.0001 µM value was observed for hIL10Ra_VHH14 - hIL2Rg_VHH19, linker GGGS, tag his (bispecific antibody, not shown: small tags and cut ends) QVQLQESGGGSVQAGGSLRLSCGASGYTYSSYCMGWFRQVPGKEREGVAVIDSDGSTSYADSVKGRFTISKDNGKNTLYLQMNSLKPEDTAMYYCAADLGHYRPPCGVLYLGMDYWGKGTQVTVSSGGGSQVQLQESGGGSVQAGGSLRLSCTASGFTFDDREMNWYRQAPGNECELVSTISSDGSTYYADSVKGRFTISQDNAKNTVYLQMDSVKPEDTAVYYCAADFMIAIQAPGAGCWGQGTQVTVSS ?
*A* 19700
